# System: ZEAMA Sileno
# assayRemarks: Treatment 1 day before (safener applied one day before herbicide, post-emergence)
# Format: in vivo, maize
# measurementContext: HER dose 8 g a.i./ha, cyprosulfamide 100 g a.i./ha applied 1 day before; Final assessment
# From the text: Seeds of crops (spring wheat, TRZAS; spring barley, HORVS; maize, ZEAMA) were placed in sandy loam soil in pots of a diameter of 7-8 cm, covered with soil, and cultivated in a greenhouse under good growth conditions until plants were at the 1-3 leaf stage (BBCH 11-13). For split safener and herbicide treatment, first the safener was applied followed by the herbicide treatment on the following day. […]
Each entry below carries its recorded HER effect + SAF.
Report the figure in % without appending any unit label.

Query: Quick one: HER effect + SAF for CCOC(=O)C1C=CC(NC(=O)C2(CF)CC(c3cc(F)cc(F)c3)=NO2)C1 (centres unmarked) [Example 1.17] ?
Reply: 35

Query: Sample CN(C)C(=O)SCCOC(=O)C1C=CC(NC(=O)C2(C)CC(c3cc(F)cc(F)c3)=NO2)C1 (centres unmarked) [Example 1.29] — what was its HER effect + SAF?
Reply: 20

Query: Sample CCCSCCOC(=O)C1C=CC(NC(=O)C2(C)CC(c3cc(F)cc(F)c3)=NO2)C1 (centres unmarked) [Example 1.34] — what was its HER effect + SAF?
Reply: 20

Query: Which HER effect + SAF is listed for C=CC1(C(=O)NC2COC(C(=O)OC)C2)CC(c2cc(F)cc(F)c2)=NO1 (mixture of isomers) [Example 1.68] ?
Reply: 30

Query: Find the recorded HER effect + SAF belonging to CC1(C(=O)NC2C=CC(C(=O)O)C2)CC(c2cc(F)cc(F)c2)=NO1 (centres unmarked) [Example 1.36] and report it.
Reply: 25

====

Listed below: Reduction [Difference] values for each entry.
# Test system: ZEAMA Sileno
# assayRemarks: Seed treatment with safener; post-emergence herbicide application
# Assay type: in vivo, maize
# Parameters: scale not given here
# measurementContext: HER dose 32 g a.i./ha, Cyprosulfamide 0.5 g a.i./kg seed, Final assessment, damage without safener - damage with safener
Respond using a number only.

Here are 3 compounds together with their reported answers.
# compound, readoutNumber
measured = [
    ("CC1(C(=O)NC2C=CC(C(=O)OCCSC(F)(F)F)C2)CC(c2cc(F)cc(F)c2)=NO1 (centres unmarked)", 75),
    ("COC(=O)C1=CC(NC(=O)C2(C)CC(c3cc(F)cc(F)c3)=NO2)CC1 (centres unmarked)", 75),
    ("CC1(C(=O)NC2COC(C(=O)OCc3cccc(F)c3)C2)CC(c2cc(F)cc(F)c2)=NO1 (mixture of isomers)", 20),
]

Would you kindly look at the next entry?
Query: Can you share its Reduction [Difference]? I mean this compound: CCOC(=O)C1C=CC(NC(=O)C2(CF)CC(c3cc(F)cc(F)c3)=NO2)C1 (centres unmarked)
Reply: 70

====

Measured HER effect (crop damage, herbicide without safener) values are reported for all entries that follow.
# System: ZEAMA Sileno
# assayRemarks: Seed treatment with safener; post-emergence herbicide application
# Format: in vivo, maize
# measurementContext: HER dose 8 g a.i./ha, no safener, Final assessment
Reply with the number, then its unit.

# molecule, result
rows = [
    ("C=CC1(C(=O)NC2COC(C(=O)OCCOC)C2)CC(c2cc(F)cc(F)c2)=NO1 (mixture of isomers) [Example 1.66]", "96%"),
    ("COCCOC(=O)C1C=CC(NC(=O)C2(CCl)CC(c3cc(F)cc(F)c3)=NO2)C1 (stereo not drawn) [Example 1.1]", "30%"),
    ("COC(=O)C1C=CC(NC(=O)C2(C)CC(c3cc(F)cc(F)c3)=NO2)C1 (stereo not drawn) [Example 1.19]", "40%"),
]

Query: Item C=CC1(C(=O)NC2COC(C(=O)OCCCl)C2)CC(c2cc(F)cc(F)c2)=NO1 (mixture of isomers) [Example 1.82] has what recorded HER effect (crop damage, herbicide without safener)?
Reply: 93%

Query: Which HER effect (crop damage, herbicide without safener) is reported for this molecule? CCOC(=O)C1C=CC(NC(=O)C2(CF)CC(c3cc(F)cc(F)c3)=NO2)C1 (stereo not drawn) [Example 1.17]
Reply: 95%

Query: Looking for the measured HER effect (crop damage, herbicide without safener) of COCCOC(=O)C1C=CC(NC(=O)C2(C)CC(c3cc(Cl)cc(C#N)c3)=NO2)C1 (stereo not drawn) [Example 1.5] , can you help?
Reply: 85%

Query: Need HER effect (crop damage, herbicide without safener) of COC(=O)C1C=CC(NC(=O)C2(C)CC(c3cc(Cl)cc(C#N)c3)=NO2)C1 (mixture of isomers) [Example 1.23] , thanks.
Reply: 50%

Query: Recorded HER effect (crop damage, herbicide without safener) for CCCSCCOC(=O)C1C=CC(NC(=O)C2(C)CC(c3cc(F)cc(F)c3)=NO2)C1 (stereo not drawn) [Example 1.34] , please?
Reply: 50%

Query: HER effect (crop damage, herbicide without safener); subject: CC1(C(=O)NC2C=CC(C(=O)OCCSC(F)(F)F)C2)CC(c2cc(F)cc(F)c2)=NO1 (stereo not drawn) [Example 1.38]
Reply: 35%

Query: What value of measured HER effect (crop damage, herbicide without safener) is listed for COC(=O)C1(C)CC(NC(=O)C2(C(C)(F)F)CC(c3cc(F)cc(F)c3)=NO2)CO1 (mixture of isomers) [Example 1.94] ?
Reply: 91%

====

# System: ZEAMA Sileno
# assayRemarks: Seed treatment with safener; post-emergence herbicide application
# Format: in vivo, maize
# Parameters: scale not given here
# measurementContext: HER dose 32 g a.i./ha, Cyprosulfamide 0.5 g a.i./kg seed, Final assessment, damage without safener - damage with safener
assayMetric: Reduction [Difference]

# molecule, Reduction [Difference]
rows = [
    ("COC(=O)C1C=CC(NC(=O)C2(C(F)(F)F)CC(c3cccc(F)c3)=NO2)C1 (stereo not shown)", 77),
    ("CC1(C(=O)NC2C=CC(C(=O)O)C2)CC(c2cc(F)cc(F)c2)=NO1 (stereo not shown)", 65),
    ("COC(=O)C1(C)CC(NC(=O)C2(C(C)(F)F)CC(c3cc(F)cc(F)c3)=NO2)CO1 (mixture of isomers)", 87),
]

Query: Record lookup: for ZEAMA Sileno, what Reduction [Difference] belongs to C=CCOC(=O)C1CC(NC(=O)C2(C)CC(c3cc(F)cc(F)c3)=NO2)CO1 (mixture of isomers) ?
Reply: 78

====

Catalogue of Reduction [%] values
# Tested on: ZEAMA Abraxas
# assayRemarks: Tank-mix; post-emergence, crop damage with and without safener
# Assay type: in vivo, maize
# measurementContext: HER 8 g a.i./ha, cyprosulfamide 50 g a.i./ha
Give the value in % but do not write % after it.

Before answering, review these 6 worked examples.
# molecule, Reduction [%], %
measured = [
    ("CC1(C(=O)NC2COC(C(=O)OCc3cccc(F)c3)C2)CC(c2cc(F)cc(F)c2)=NO1 (mixture of isomers)", 74),
    ("C=CC1(C(=O)NC2COC(C(=O)OC)C2)CC(c2cc(C)cc(F)c2)=NO1 (mixture of isomers)", 71),
    ("C=CC1(C(=O)NC2C=C(C(=O)OCCOC)OC2)CC(c2cc(C)cc(F)c2)=NO1 (stereo not shown)", 100),
    ("C=CC1(C(=O)NC2CC=C(C(=O)OC)C2)CC(c2cc(F)cc(F)c2)=NO1 (mixture of isomers)", 69),
    ("COC(=O)C1C=CC(NC(=O)C2(C)CC(c3cc(F)cc(Cl)c3)=NO2)C1 (stereo not shown)", 71),
    ("C=CC1(C(=O)NC2C=CC(C(=O)O)C2)CC(c2cc(F)cc(F)c2)=NO1 (stereo not shown)", 87),
]

# evaluate next
Query: Test system ZEAMA Abraxas; read-out Reduction [%]; what value for C=CC1(C(=O)NC2COC(C(=O)OCc3ccc(OC)cc3)C2)CC(c2cc(C)cc(F)c2)=NO1 (mixture of isomers) ?
Reply: 84

====

The entries below are paired with their reported Reduction [%].
# System: ZEAMA Sileno
# assayRemarks: Seed treatment with safener; post-emergence herbicide application
# Assay type: in vivo, maize
# measurementContext: HER dose 8 g a.i./ha, Cyprosulfamide 0.5 g a.i./kg seed, Final assessment
Answer with a number only, understood to be in %.

Illustrative cases are given below, each with its answer.
# molecule, readingUnit, Reduction [%]
data = [
    ("CC1(C(=O)NC2CC=C(C(=O)NS(C)(=O)=O)C2)CC(c2cc(F)cc(F)c2)=NO1 (mixture of isomers)", "%", 57),
    ("C=CC1(C(=O)NC2COC(C(=O)OCCCl)C2)CC(c2cc(F)cc(F)c2)=NO1 (mixture of isomers)", "%", 89),
    ("C=CC1(C(=O)NC2COC(C(=O)OC)C2)CC(c2cc(F)cc(F)c2)=NO1 (stereo not shown) [Example 1.69]", "%", 82),
]

Query: Checklist item: Reduction [%] tested on ZEAMA Sileno, entry CCOC(=O)C1=CCC(NC(=O)C2(C)CC(c3cccc(F)c3)=NO2)C1 (mixture of isomers) , value?
Reply: 100
